Details: in water, 278.15 K
quantityMeasured: solubility (mole fraction)
Write the value as a bare number.

So, C[C@]12CCC3=C4CCC(=O)C=C4CC[C@H]3[C@@H]1CC[C@@]2(O)CC#N ? Its solubility (mole fraction) was 6.47e-06

###

Conditions: in isopropanol, 303.15 K
quantityMeasured: solubility (mole fraction)
Write the value as a bare number.

So, C[C@]12CCC3=C4CCC(=O)C=C4CC[C@H]3[C@@H]1CC[C@@]2(O)CC#N ? Its solubility (mole fraction) was 0.00227

###

Conditions: in ethyl acetate, 293.15 K
quantityMeasured: solubility (mole fraction)
Write the value as a bare number.

So, C[C@]12CCC3=C4CCC(=O)C=C4CC[C@H]3[C@@H]1CC[C@@]2(O)CC#N ? Its solubility (mole fraction) was 0.00242

###

Conditions: in THF, 313.15 K
quantityMeasured: solubility (mole fraction)
Write the value as a bare number.

So, C[C@]12CCC3=C4CCC(=O)C=C4CC[C@H]3[C@@H]1CC[C@@]2(O)CC#N ? Its solubility (mole fraction) was 0.0192

###

Conditions: in ethyl acetate, 273.15 K
quantityMeasured: solubility (mole fraction)

So, C[C@]12CCC3=C4CCC(=O)C=C4CC[C@H]3[C@@H]1CC[C@@]2(O)CC#N ? Its solubility (mole fraction) was 0.00145

###

Conditions: in DMF, 318.15 K
quantityMeasured: solubility (mole fraction)

So, C[C@]12CCC3=C4CCC(=O)C=C4CC[C@H]3[C@@H]1CC[C@@]2(O)CC#N ? Its solubility (mole fraction) was 0.0374

###

Conditions: in MTBE, 308.15 K
quantityMeasured: solubility (mole fraction)
Write the value as a bare number.

So, C[C@]12CCC3=C4CCC(=O)C=C4CC[C@H]3[C@@H]1CC[C@@]2(O)CC#N ? Its solubility (mole fraction) was 0.00045

###

Conditions: in methanol, 273.15 K
quantityMeasured: solubility (mole fraction)
Write the value as a bare number.

So, C[C@]12CCC3=C4CCC(=O)C=C4CC[C@H]3[C@@H]1CC[C@@]2(O)CC#N ? Its solubility (mole fraction) was 0.00182

###

Conditions: in water, 298.15 K
quantityMeasured: solubility (mole fraction)
Write the value as a bare number.

So, C[C@]12CCC3=C4CCC(=O)C=C4CC[C@H]3[C@@H]1CC[C@@]2(O)CC#N ? Its solubility (mole fraction) was 8.88e-06

###

Conditions: in acetone, 283.15 K
quantityMeasured: solubility (mole fraction)
Write the value as a bare number.

So, C[C@]12CCC3=C4CCC(=O)C=C4CC[C@H]3[C@@H]1CC[C@@]2(O)CC#N ? Its solubility (mole fraction) was 0.00536

###

Settings: in n-propanol, 283.15 K
quantityMeasured: solubility (mole fraction)
Write the value as a bare number.

So, C[C@]12CCC3=C4CCC(=O)C=C4CC[C@H]3[C@@H]1CC[C@@]2(O)CC#N ? Its solubility (mole fraction) was 0.00187

###

Details: in acetone, 318.15 K
quantityMeasured: solubility (mole fraction)
Write the value as a bare number.

So, C[C@]12CCC3=C4CCC(=O)C=C4CC[C@H]3[C@@H]1CC[C@@]2(O)CC#N ? Its solubility (mole fraction) was 0.00899

###

Details: in MTBE, 283.15 K
quantityMeasured: solubility (mole fraction)
Write the value as a bare number.

So, C[C@]12CCC3=C4CCC(=O)C=C4CC[C@H]3[C@@H]1CC[C@@]2(O)CC#N ? Its solubility (mole fraction) was 0.000302
